Measured MDCK Permeability (MDR1-MDCK); Mean; P. Ratio(B-A/A-B) Efflux Ratio values are reported for all entries that follow.
Tested on: MDR1-MDCK cell monolayers
test protocol: MDR1/MDCK permeability assay
Assay type: in vitro ADME
condition info: Papp B-A/A-B; Table 4
Description: The MDR1/MDCK assay is run at WuXi and Absorption Systems. This assay is used to determine the blood-brain barrier (BBB) penetration potential of a test compound using MDR1-MDCK cell monolayers. Catalog number EA203. […]
measurement kind: MDCK Permeability (MDR1-MDCK); Mean; P. Ratio(B-A/A-B) Efflux Ratio

{"compound": "CCC1(c2ccccc2)C2=C(CC(C)(C)CC2=O)Nc2ncccc21 (single isomer, unassigned) [102 B]", "system": "MDR1-MDCK cell monolayers", "observed": 4.3}
{"compound": "CCC1(c2cccc(-c3ccnn3C)c2)C2=C(CC(C)(C)CC2=O)Nc2ncccc21 (single isomer, unassigned) [Compound 1019A]", "system": "MDR1-MDCK cell monolayers", "observed": 9.5}
{"compound": "CCC1(c2cccc(-c3ccnc4c3CCC4)c2)C2=C(CC(C)(C)CC2=O)Nc2ncccc21 (single isomer, unassigned) [Compound 1034B]", "system": "MDR1-MDCK cell monolayers", "observed": 3.3}

====

system: GSK3b (GST-full length GSK3b) (Homo sapiens)
Construct: GST-full length GSK3b: [SignalChem G08-9G]; purchased SignalChem G08-9G
test protocol: GSK3b TR-FRET kinase inhibition assay
Assay type: biochemical
condition info: 2 μM ATP; read-out: GSK3β TR-FRET 2 μM ATP GMean IC50
Description: TR-FRET assay was performed in a white, 384 well, low volume, flat bottom plate (Grenier). After a 30 minute preincubation in assay buffer with the indicated concentration of compound, the kinase activity was initiated by the addition of the substrates. […] After 60 min at room temperature the plate was read on Envision plate reader using Ex: 340 nm, Em: 615 nm and […]. The normalized 665/615 Signal ratio versus log compound concentration was analyzed by XLFIT to yield IC50 values.
Measured IC50 values are reported for all entries that follow.

{"molecule": "CCC1(c2ccccc2)C2=C(CC3(CCC3)CC2=O)Nc2ncc(F)cc21 (single isomer, unassigned) [Compound 1008A]", "IC50": "≤ 100 nM"}
{"molecule": "CCC1(c2cccc(-c3ccncc3OC)c2)C2=C(CC(C)(C)CC2=O)Nc2ncccc21 (single isomer, unassigned) [Compound 1028A]", "IC50": "> 5000 nM"}
{"molecule": "CCC1(c2cccc(-c3ccncc3C)c2)C2=C(CC(C)(C)CC2=O)Nc2ncccc21 (single isomer, unassigned) [Compound 1020A]", "IC50": "> 5000 nM"}
{"molecule": "CCC1(c2ccccc2)C2=C(Nc3ncccc31)C(F)C(C)(C)CC2=O (single isomer, unassigned) [Compound 1006B]", "IC50": "> 5000 nM"}
{"molecule": "CCC1(c2cccc(-c3ccnn3C)c2)C2=C(CC(C)(C)CC2=O)Nc2ncccc21 (single isomer, unassigned) [Compound 1019A]", "IC50": "≤ 100 nM"}
{"molecule": "CCC1(c2cccc(-c3ccccn3)c2)C2=C(CC(C)(C)CC2=O)Nc2ncccc21 (single isomer, unassigned) [Compound 1016B]", "IC50": "> 5000 nM"}
{"molecule": "CCC1(c2cccc(-c3ccnc4c3CCC4)c2)C2=C(CC(C)(C)CC2=O)Nc2ncccc21 (single isomer, unassigned) [Compound 1034A]", "IC50": "> 5000 nM"}
{"molecule": "CCC1(c2cccc(-c3ccncc3C)c2)C2=C(CC(C)(C)CC2=O)Nc2ncc(F)cc21 (single isomer, unassigned) [Compound 1031A]", "IC50": "100 to 1000 nM"}
{"molecule": "CCC1(c2cccc(-c3ccnn3C)c2)C2=C(CC(C)(C)CC2=O)Nc2ncc(F)cc21 (single isomer, unassigned) [Compound 1025B]", "IC50": "> 5000 nM"}
{"molecule": "CCC1(c2cccc(C(C)C)c2)C2=C(CC(C)(C)CC2=O)Nc2ncccc21 (single isomer, unassigned) [Compound 1011B]", "IC50": "≤ 100 nM"}
{"molecule": "CCC1(c2cccc(-c3ccnc(C)c3)c2)C2=C(CC(C)(C)CC2=O)Nc2ncccc21 (single isomer, unassigned) [Compound 1021A]", "IC50": "> 5000 nM"}
{"molecule": "CCC1(c2cccc(-c3cncn3C(C)C)c2)C2=C(CC(C)(C)CC2=O)Nc2ncccc21 (single isomer, unassigned) [Compound 149B]", "IC50": "100 to 1000 nM"}
{"molecule": "CCC1(c2cccc(-c3cn(C)nc3C)c2)C2=C(CC(C)(C)CC2=O)Nc2ncccc21 (single isomer, unassigned) [Compound 1023A]", "IC50": "≤ 100 nM"}
{"molecule": "CCC1(c2cccc(-c3ccnc4c3CCCC4)c2)C2=C(CC(C)(C)CC2=O)Nc2ncc(F)cc21 (single isomer, unassigned) [Compound 165B]", "IC50": "≤ 100 nM"}
{"molecule": "CCC1(c2cccc(-c3cn(C)nc3C)c2)C2=C(CC(C)(C)CC2=O)Nc2ncc(F)cc21 (single isomer, unassigned) [Compound 1032B]", "IC50": "≤ 100 nM"}
{"molecule": "CCC1(c2cccc(-c3ccncc3OC)c2)C2=C(CC(C)(C)CC2=O)Nc2ncc(F)cc21 (single isomer, unassigned) [Compound 1037B]", "IC50": "≤ 100 nM"}
{"molecule": "CCC1(c2cccc(-c3cc(C)ncc3C)c2)C2=C(CC(C)(C)CC2=O)Nc2ncccc21 (single isomer, unassigned) [Compound 1027B]", "IC50": "100 to 1000 nM"}
{"molecule": "CCC1(c2ccccc2)C2=C(CC(C)(C)NC2=O)Nc2ncc(F)cc21 (single isomer, unassigned) [Compound 1007B]", "IC50": "≤ 100 nM"}
{"molecule": "CCC1(c2cccc(-c3ccnc(C)c3)c2)C2=C(CC(C)(C)CC2=O)Nc2ncccc21 (single isomer, unassigned) [Compound 1021B]", "IC50": "100 to 1000 nM"}
{"molecule": "CCC1(c2cccc(-c3ccnc(C)c3C)c2)C2=C(CC(C)(C)CC2=O)Nc2ncc(F)cc21 (single isomer, unassigned) [Compound 1035B]", "IC50": "1000 to 5000 nM"}
{"molecule": "CCC1(c2cccc(-c3ccncc3C)c2)C2=C(CC(C)(C)CC2=O)Nc2ncc(F)cc21 (single isomer, unassigned) [Compound 1031B]", "IC50": "≤ 100 nM"}
{"molecule": "CCC1(c2cccc(C(C)C)c2)C2=C(CC(C)(C)CC2=O)Nc2ncccc21 (single isomer, unassigned) [Compound 1011A]", "IC50": "> 5000 nM"}
{"molecule": "CCC1(c2cccc(-c3ccnc(C)c3C)c2)C2=C(CC(C)(C)CC2=O)Nc2ncccc21 (single isomer, unassigned) [147 A]", "IC50": "> 5000 nM"}
{"molecule": "CCC1(c2cccc(-c3ccnc4c3CCCC4)c2)C2=C(CC(C)(C)CC2=O)Nc2ncccc21 (single isomer, unassigned) [Compound 1039B]", "IC50": "≤ 100 nM"}
{"molecule": "CCC1(c2cccc(O)c2)C2=C(CC(C)(C)CC2=O)Nc2ncc(F)cc21 (single isomer, unassigned) [Compound 1010B]", "IC50": "≤ 100 nM"}

====

Tested on: MDR1-MDCK cell monolayers
test protocol: MDR1/MDCK permeability assay
Assay type: in vitro ADME
condition info: A to B; Table 4
measurement kind: MDCK Permeability (MDR1-MDCK); Mean; Papp(A-B) (10^−6 cm/s)

{"compound": "CCC1(c2cccc(O)c2)C2=C(CC(C)(C)CC2=O)Nc2ncc(F)cc21 (single isomer, unassigned) [Compound 1010B]", "observed": "0.80 10^−6 cm/s"}
{"compound": "CCC1(c2cccc(-c3c(F)cncc3OC)c2)C2=C(CC(C)(C)CC2=O)Nc2ncccc21 (single isomer, unassigned) [Compound 154B]", "observed": "3.1 10^−6 cm/s"}
{"compound": "CCC1(c2ccccc2)C2=C(CC(C)(C)CC2=O)Nc2ncc(F)cc21 (single isomer, unassigned) [Compound 114A]", "observed": "10 10^−6 cm/s"}

====

Measured IC50 values are reported for all entries that follow.
system: GSK3b (GST-full length GSK3b) (Homo sapiens, UniProt P49841)
Construct: GST-full length GSK3b: [SignalChem G08-9G]; purchased SignalChem G08-9G
Sequence (P49841 whole entry): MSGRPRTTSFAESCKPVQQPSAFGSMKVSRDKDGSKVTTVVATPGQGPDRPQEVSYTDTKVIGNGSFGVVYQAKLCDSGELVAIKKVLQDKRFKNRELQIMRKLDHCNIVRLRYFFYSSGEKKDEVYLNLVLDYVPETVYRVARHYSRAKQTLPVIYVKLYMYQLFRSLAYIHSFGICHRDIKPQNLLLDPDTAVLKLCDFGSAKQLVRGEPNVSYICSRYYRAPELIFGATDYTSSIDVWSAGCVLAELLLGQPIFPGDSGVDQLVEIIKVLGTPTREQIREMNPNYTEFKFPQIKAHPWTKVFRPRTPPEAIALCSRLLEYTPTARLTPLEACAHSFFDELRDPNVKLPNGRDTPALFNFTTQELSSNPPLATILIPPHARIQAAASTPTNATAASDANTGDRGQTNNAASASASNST
test protocol: GSK3b TR-FRET kinase inhibition assay
Assay type: biochemical
condition info: 10 μM ATP; read-out: GSK3b 10 μM ATP Average IC50

{"molecule": "CC1(C)CC(=O)C2=C(C1)Nc1ncccc1C2(C)c1ccccc1 (single isomer, unassigned) [Compound 101A]", "IC50": "≤ 0.1 µM"}
{"molecule": "CCC1(c2cccc(-c3cncn3C(C)C)c2)C2=C(CC(C)(C)CC2=O)Nc2ncccc21 (single isomer, unassigned) [Compound 149A]", "IC50": "≤ 0.1 µM"}
{"molecule": "CCC1(c2ccccc2)C2=C(CC(C)(C)CC2=O)Nc2ncccc21 (single isomer, unassigned) [Compound 102A]", "IC50": "≤ 0.1 µM"}
